Value source: patent US20240383901A1

Target desc: full-length LRRK2 wild type (Homo sapiens, UniProt Q5S007)
Sequence (Q5S007 whole entry): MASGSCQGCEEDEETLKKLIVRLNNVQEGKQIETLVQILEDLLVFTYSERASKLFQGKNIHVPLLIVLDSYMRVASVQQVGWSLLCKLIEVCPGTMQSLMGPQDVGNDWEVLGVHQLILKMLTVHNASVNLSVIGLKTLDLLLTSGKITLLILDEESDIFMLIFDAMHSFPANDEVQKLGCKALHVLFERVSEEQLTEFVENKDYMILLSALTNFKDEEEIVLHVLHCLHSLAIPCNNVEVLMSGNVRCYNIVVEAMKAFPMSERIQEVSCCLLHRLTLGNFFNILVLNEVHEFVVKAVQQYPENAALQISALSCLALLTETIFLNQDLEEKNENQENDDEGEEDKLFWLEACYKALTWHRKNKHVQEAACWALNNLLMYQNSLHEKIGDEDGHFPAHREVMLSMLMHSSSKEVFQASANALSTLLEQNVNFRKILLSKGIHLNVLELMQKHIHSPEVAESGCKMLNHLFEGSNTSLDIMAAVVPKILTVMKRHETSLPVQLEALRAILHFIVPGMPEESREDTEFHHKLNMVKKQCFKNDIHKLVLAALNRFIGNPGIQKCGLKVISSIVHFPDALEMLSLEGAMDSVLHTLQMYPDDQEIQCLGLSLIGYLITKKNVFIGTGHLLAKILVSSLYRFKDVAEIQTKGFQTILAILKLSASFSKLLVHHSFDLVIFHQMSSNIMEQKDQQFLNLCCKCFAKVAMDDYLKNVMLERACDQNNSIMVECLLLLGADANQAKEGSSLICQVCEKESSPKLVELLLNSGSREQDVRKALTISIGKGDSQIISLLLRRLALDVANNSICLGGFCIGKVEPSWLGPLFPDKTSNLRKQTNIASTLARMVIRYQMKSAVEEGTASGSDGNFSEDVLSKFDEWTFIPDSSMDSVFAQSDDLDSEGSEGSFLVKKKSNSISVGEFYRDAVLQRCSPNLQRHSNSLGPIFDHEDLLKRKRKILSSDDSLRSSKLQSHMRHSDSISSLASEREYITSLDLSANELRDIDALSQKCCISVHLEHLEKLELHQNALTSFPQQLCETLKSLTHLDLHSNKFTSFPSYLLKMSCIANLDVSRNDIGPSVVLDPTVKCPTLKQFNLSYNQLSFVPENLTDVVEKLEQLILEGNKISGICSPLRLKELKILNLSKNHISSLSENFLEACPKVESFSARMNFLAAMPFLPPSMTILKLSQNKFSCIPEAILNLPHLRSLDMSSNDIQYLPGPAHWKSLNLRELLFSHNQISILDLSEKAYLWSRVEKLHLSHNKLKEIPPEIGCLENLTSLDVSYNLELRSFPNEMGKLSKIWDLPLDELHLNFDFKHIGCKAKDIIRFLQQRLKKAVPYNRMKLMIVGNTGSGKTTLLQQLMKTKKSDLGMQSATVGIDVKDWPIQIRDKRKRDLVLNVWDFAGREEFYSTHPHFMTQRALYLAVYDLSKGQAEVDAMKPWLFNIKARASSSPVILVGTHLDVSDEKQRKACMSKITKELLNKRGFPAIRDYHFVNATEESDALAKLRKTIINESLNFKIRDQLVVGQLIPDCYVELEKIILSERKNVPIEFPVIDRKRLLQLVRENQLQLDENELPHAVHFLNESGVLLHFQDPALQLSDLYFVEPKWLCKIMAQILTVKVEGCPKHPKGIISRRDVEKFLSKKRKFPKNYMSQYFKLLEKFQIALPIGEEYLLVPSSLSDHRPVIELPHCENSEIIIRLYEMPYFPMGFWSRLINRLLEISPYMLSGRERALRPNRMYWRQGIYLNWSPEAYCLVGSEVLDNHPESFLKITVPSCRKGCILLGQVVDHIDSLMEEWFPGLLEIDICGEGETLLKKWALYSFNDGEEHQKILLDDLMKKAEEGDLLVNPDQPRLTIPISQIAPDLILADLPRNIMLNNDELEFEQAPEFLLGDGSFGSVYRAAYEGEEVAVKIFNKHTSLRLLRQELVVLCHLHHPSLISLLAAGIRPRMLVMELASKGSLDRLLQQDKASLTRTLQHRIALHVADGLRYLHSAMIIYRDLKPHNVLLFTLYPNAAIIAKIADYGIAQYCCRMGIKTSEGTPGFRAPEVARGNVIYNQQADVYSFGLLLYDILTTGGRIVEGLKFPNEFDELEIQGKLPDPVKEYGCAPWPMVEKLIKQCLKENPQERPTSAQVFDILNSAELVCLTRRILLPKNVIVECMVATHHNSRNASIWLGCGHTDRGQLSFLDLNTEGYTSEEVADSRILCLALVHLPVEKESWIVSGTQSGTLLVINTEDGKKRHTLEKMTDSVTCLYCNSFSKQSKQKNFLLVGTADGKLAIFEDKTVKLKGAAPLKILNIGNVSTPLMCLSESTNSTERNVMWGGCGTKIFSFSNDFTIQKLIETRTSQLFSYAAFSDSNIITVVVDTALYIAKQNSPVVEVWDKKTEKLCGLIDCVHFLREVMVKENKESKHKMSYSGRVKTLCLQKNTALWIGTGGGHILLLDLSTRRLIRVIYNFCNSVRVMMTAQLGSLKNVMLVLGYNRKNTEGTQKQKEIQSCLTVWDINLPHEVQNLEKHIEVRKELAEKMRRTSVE
The label is Y for IC50 below 10 nM and N for IC50 equal to or exceeding 10 nM.

Below, 5 compounds whose answers are already recorded.
Compound: [2H]C([2H])([2H])n1cc(Nc2ncc3cc(C#N)n([C@@H](C)COC)c3n2)c(OC2CCOC2)n1 (single isomer, unassigned)
Label class: N
//
Compound: [2H]C([2H])([2H])n1cc(Nc2ncc3cc(C#N)n([C@H]4COC[C@@H]4C)c3n2)c(OC2COC(C)(C)C2)n1 (single isomer, unassigned) [Example 110]
Label class: Y
//
Compound: COCn1cc(Nc2ncc3cc(C#N)n([C@H]4COC[C@@H]4C)c3n2)c(OC2CC2)n1
Label class: Y
//
Compound: C[C@H]1COC[C@@H]1n1c(C#N)cc2cnc(Nc3cn(C)nc3OCC(C)(C)O)nc21
Label class: Y
//
Compound: CC(=O)N1CC(Oc2nn(C)cc2Nc2ncc3cc(C#N)n([C@H]4COC[C@@H]4C)c3n2)C1
Label class: Y

Problem: Lab note: IC50 threshold 10 nM. Does this compound come in strictly under it? C[C@H]1COC[C@@H]1n1c(C#N)cc2cnc(Nc3cn(CS(C)(=O)=O)nc3OC3CC3)nc21
Result: Y

Problem: Lab note: IC50 threshold 10 nM. Does this compound come in strictly under it? COC[C@H](C)n1c(C#N)cc2cnc(Nc3cn(C)nc3O[C@@H]3CO[C@H]3C)nc21 (single isomer, unassigned) [Example 88]
Result: N

Problem: Lab note: IC50 threshold 10 nM. Does this compound come in strictly under it? C[C@@H]1COCC[C@H]1n1c(C#N)cc2cnc(Nc3cn(CCO)nc3OC3COC3)nc21 (single isomer, unassigned) [Example 161]
Result: Y

Problem: Lab note: IC50 threshold 10 nM. Does this compound come in strictly under it? [2H]C([2H])([2H])n1cc(Nc2ncc3cc(C#N)n([C@@H](C)COC)c3n2)c(OC2COC2)n1
Result: N

---

Target desc: full-length LRRK2 G2019S (Homo sapiens, UniProt Q5S007, G2019S)
Construct: DYKDDDDK (FLAG)
Sequence (Q5S007 whole entry G2019S): as the sequence (Q5S007 whole entry) above, with G2019S counted along it
Assay procedure: LRRK2-G2019S kinase activity assay (Lanthascreen TR-FRET)
Test conditions: 1.1 mM ATP
Provide the recorded IC50 for the entries that follow.
Numbers only, in nM.

Compound: C[C@H]1COC[C@@H]1n1c(C#N)cc2cnc(Nc3cn(C4COC4)nc3OC3CC3)nc21
Reported metric: IC50
Result value: 3

Compound: [2H]C([2H])([2H])n1cc(Nc2ncc3cc(C#N)n([C@H]4COC[C@@H]4C)c3n2)c(OC2COC(C)(C)C2)n1 (single isomer, unassigned) [Example 109]
Reported metric: IC50
Result value: 38

Compound: C[C@H]1COC[C@@H]1n1c(C#N)cc2cnc(Nc3cn(C(C)(C)C#N)nc3OC3COC3)nc21
Reported metric: IC50
Result value: 1

Compound: CC(C)Oc1nn(C)cc1Nc1ncc2cc(C#N)n([C@@H]3COC[C@@H]3C)c2n1 (racemic)
Reported metric: IC50
Result value: 31

Compound: CC(C(F)F)n1cc(Nc2ncc3cc(C#N)n([C@H]4COC[C@@H]4C)c3n2)c(OC2CC2)n1 (mixture of isomers)
Reported metric: IC50
Result value: 1

Go through the items and report each one's IC50.
1. C[C@H]1COC[C@@H]1n1c(C#N)cc2cnc(Nc3cn(S(C)(=O)=O)nc3OC3COC3)nc21
2. CC(Oc1nn(C2COC2)cc1Nc1ncc2cc(C#N)n([C@H]3COC[C@@H]3C)c2n1)C(F)(F)F (single isomer, unassigned) [Example 10]

Result:
[5, 1]
